# system.under.test: T1, KDR (1-3) monomer (UniProt P35968 20-327, limits assumed, biotin-labeled in the ELISA of Example 8)
# T1 construct: domain: domains 1 to 3; Genentech reagent; also called domains 1 to 3 of KDR
# assay.explanation: competition ELISA vs biotinylated VEGF (8-109), soluble KDR (1-3) captured by MAKD5
Please provide measured Relative Binding Affinity (ratio to native VEGF (8-109)) for the entries that follow.
Please give a number only; it is taken to be in fold.

Field Relative Binding Affinity (ratio to native VEGF (8-109)) (entry LK-VRB-7s* (ligand, human, UniProt P15692-4 27-135, looked up) APMAEGGGQNHHEVVKFEDVYQRSYCHPIETLVDIFQEYPDEIEYIFKPSCVPLMRCGGCCNSEMRECVPTEESNITMQIMRIKPHQGQHIGEMSFLQHNKCECRPKKD ) reads 1

Field Relative Binding Affinity (ratio to native VEGF (8-109)) (entry LK-VRB-22s (ligand, human, UniProt P15692-4 27-135, looked up) APMAEGGGQNHHEVVKFEDVLRRSSCHPIETLVDIFQEYPDEIEYIFKPSCVPLMRCGGCCNDEMLECVPTEESNITMQIMRIKPHQGQHIGEMSFLQHNKCECRPKKD ) reads 4

Field Relative Binding Affinity (ratio to native VEGF (8-109)) (entry LK-VRB-21s (ligand, human, UniProt P15692-4 27-135, looked up) APMAEGGGQNHHEVVKFEDVLRRSSCHPIETLVDIFQEYPDEIEYIFKPSCVPLMRCGGCCNSEGLECVPTEESNITMQIMRIKPHQGQHIGEMSFLQHNKCECRPKKD ) reads 3

Field Relative Binding Affinity (ratio to native VEGF (8-109)) (entry LK-VRB-25s (ligand, human, UniProt P15692-4 27-135, looked up) APMAEGGGQNHHEVVKFEDVLRRSSCHPIETLVDIFQEYPDEIEYIFKPSCVPLMRCGGCCNSEGRECVPTEESNITMQIMRIKPHQGQHIGEMSFLQHNKCECRPKKD ) reads 4
